- SUBJECT OF TEST: ALK (Homo sapiens)
- Construct: host or cells: baculovirus expression system
- Sequence (Q9UM73 19-1620): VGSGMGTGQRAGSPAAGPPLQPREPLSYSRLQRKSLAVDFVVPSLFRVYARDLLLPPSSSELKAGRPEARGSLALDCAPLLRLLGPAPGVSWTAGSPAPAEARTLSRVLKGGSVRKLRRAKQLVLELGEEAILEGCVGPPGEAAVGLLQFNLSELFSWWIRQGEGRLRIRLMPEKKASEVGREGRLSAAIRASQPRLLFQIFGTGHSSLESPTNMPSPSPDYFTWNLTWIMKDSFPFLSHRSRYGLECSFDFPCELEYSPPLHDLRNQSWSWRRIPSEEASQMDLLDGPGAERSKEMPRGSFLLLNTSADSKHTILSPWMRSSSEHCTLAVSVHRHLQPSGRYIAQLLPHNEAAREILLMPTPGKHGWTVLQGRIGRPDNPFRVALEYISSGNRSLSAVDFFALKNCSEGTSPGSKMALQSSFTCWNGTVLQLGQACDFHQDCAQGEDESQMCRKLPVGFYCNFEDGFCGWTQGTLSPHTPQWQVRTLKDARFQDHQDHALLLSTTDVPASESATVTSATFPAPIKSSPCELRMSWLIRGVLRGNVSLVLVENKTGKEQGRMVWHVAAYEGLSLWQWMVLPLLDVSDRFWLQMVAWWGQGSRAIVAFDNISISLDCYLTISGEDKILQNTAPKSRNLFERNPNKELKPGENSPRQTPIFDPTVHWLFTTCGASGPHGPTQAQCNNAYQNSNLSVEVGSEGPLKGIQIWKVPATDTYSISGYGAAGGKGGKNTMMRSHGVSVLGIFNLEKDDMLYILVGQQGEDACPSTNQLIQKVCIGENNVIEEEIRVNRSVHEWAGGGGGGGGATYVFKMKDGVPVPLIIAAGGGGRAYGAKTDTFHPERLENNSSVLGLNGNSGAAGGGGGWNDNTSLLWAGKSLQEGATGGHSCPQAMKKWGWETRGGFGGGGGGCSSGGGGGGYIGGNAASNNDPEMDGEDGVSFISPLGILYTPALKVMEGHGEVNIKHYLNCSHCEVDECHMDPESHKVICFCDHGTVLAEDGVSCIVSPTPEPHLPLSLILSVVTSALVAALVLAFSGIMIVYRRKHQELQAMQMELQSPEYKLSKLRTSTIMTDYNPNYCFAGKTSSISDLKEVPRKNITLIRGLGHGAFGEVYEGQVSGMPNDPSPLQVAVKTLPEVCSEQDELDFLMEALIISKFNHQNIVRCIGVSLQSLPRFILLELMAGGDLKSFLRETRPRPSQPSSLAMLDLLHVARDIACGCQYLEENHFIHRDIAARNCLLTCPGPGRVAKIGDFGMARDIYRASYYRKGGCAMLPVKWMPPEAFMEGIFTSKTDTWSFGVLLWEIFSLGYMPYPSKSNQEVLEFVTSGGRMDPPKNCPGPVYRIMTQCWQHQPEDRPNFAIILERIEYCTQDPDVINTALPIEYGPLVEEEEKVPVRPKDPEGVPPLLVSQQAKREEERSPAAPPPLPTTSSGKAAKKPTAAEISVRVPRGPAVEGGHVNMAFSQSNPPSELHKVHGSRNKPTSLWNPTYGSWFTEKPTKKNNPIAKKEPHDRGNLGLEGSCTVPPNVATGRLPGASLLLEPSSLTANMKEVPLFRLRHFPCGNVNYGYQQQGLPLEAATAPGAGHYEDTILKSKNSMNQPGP
- ASSAY DETAILS: ALK Kinase Assay (ELISA/TRF, PLC-γ substrate)
- Type: biochemical
- MEASUREMENT CONTEXT: ALK kinase inhibition, 1 μM ATP; read-out: ALK Potency
pIC50: −log10 of the molar value.
Form field: pIC50 (one value per entry).
PARAMETER MEASURED: pIC50

> print(dat)
                                   molecule  parameter.measured  recorded.measurement
1  Cn1cnc2ccc(Nc3ncc4ccc(-c5ccc(S(C)(=O)=O)cc5)n4n3)cc21               pIC50          6.00 to 7.00
2  COc1ccccc1-c1ccc2cnc(Nc3cccc(C(=O)N4CCN(CCO)CC4)c3OC)nn12               pIC50          6.00 to 7.00
3  CC(C)(C)NS(=O)(=O)c1cccc(-c2ccc3cnc(Nc4ccc5c(c4)CCN(CC(N)=O)C5)nn23)c1               pIC50          6.00 to 7.00
4  NC(=O)CN1CCC(c2ccc(Nc3ncc4ccc(-c5cccc(S(=O)(=O)N6CCCC6)c5)n4n3)cc2)CC1               pIC50          6.00 to 7.00
5  CC(C)(C)NS(=O)(=O)c1cccc(-c2ccc3cnc(Nc4ccc5ncn(CCN6CCOCC6)c5c4)nn23)c1               pIC50          6.00 to 7.00
6  COc1cc(C2CCCN(C)C2)ccc1Nc1ncc2ccc(-c3ccccc3OC)n2n1 (centres unmarked)               pIC50                > 7.00
7  COc1cc(C2CCN(C[C@H](Oc3ncc4ccc(-c5ccccc5N(C)S(C)(=O)=O)n4n3)C(F)(F)F)CC2)ccc1N               pIC50                < 5.00
8  COc1ccc(-c2ccc3cnc(Nc4cccc(C#N)c4)nn23)cn1               pIC50          5.00 to 6.00
